Item-by-item account of melting point

Observe how each entry below is paired with its result.
molecule | melting point
CC[C@H](C)NC(=O)[C@H]1C[C@@H](n2cnc3c(N[C@H]4CCN(c5ccc(C(F)(F)F)cn5)C4)ncnc32)[C@H](O)[C@@H]1O | 215 °C (dec.)
OC[C@H]1O[C@@H](n2cnc3c(NC4CCCN(c5ccc(C(F)(F)F)cn5)C4)ncnc32)[C@H](O)[C@@H]1O (some centres unmarked) | 113 to 116 °C
COc1cc(N2CC[C@H](Nc3ncnc4c3ncn4[C@@H]3O[C@H](CO)[C@@H](O)[C@H]3O)C2)ncn1 | 251 to 253 °C
OC[C@H]1O[C@@H](n2cnc3c(N[C@H]4CCN(c5ccc(Cl)cn5)C4)ncnc32)[C@H](O)[C@@H]1O | 154 to 156 °C
C[C@H]1C[C@@H](n2cnc3c(N[C@H]4CCN(c5ccc(C(F)(F)F)cn5)C4)ncnc32)[C@H](O)[C@@H]1O | 114 to 116 °C

Problem: Given "CC[C@@H](C)NC(=O)[C@H]1C[C@@H](n2cnc3c(N[C@H]4CCN(c5ccc(C(F)(F)F)cn5)C4)ncnc32)[C@H](O)[C@@H]1O" , state its recorded melting point.
Solution: 206 to 212 °C (dec.)

Problem: Given "COC[C@H]1C[C@@H](n2cnc3c(N[C@H]4CCN(c5ccc(Br)cn5)C4)ncnc32)[C@H](O)[C@@H]1O" , state its recorded melting point.
Solution: 110 to 111 °C

----------
System: rat adipocytes
Experiment: In vitro lipolysis assay (antilipolytic activity in rat adipocytes)
Type: cell-based
Conditions: Rattus norvegicus, Adipocyte, 1 h; norepinephrine-stimulated lipolysis, glycerol assayed, 60 min; read-out: Lipo ec50
test-readout: log10 of EC50 (log10 of the value in nM)
Values reflect log10 of reported EC50 (nM).

Problem: Given "OC[C@H]1C[C@@H](n2cnc3c(N[C@H]4CCN(c5ccc(Cl)nn5)C4)ncnc32)[C@H](O)[C@@H]1O" , state its recorded log10 of EC50.
Solution: 2.11

Problem: Given "OC[C@H]1C[C@@H](n2cnc3c(N[C@H]4CCN(c5ccccn5)C4)ncnc32)[C@H](O)[C@@H]1O" , state its recorded log10 of EC50.
Solution: 1.68

Problem: Given O=[N+]([O-])c1ccc(N2CCC(Nc3ncnc4c3ncn4[C@@H]3C[C@H](CO)[C@@H](O)[C@H]3O)C2)cc1 (stereo partly shown) , state its recorded log10 of EC50.
Solution: 0.45

----------
Tested on: rat adipocytes
Assay: In vitro lipolysis assay (antilipolytic activity in rat adipocytes)
Format: cell-based
Details: Rattus norvegicus, Adipocyte, 1 h; norepinephrine-stimulated lipolysis, glycerol assayed, 60 min; read-out: Lipo ec50
The label T is reserved for EC50 strictly under 4 nM; F covers values equal to or above it.

Below, 6 compounds whose answers are already recorded.
compound | category-label
OC[C@H]1C[C@@H](n2cnc3c(N[C@H]4CCN(c5ccc(C(F)(F)F)cn5)C4)ncnc32)[C@H](O)[C@@H]1O | T
OC[C@H]1C[C@@H](n2cnc3c(N[C@H]4CCN(c5cccc(Cl)c5)C4)ncnc32)[C@H](O)[C@@H]1O | F
OC[C@H]1O[C@@H](n2cnc3c(NC4CCN(c5ccc(Cl)nn5)C4)ncnc32)[C@H](O)[C@@H]1O (stereo partly shown) | T
C[C@H]1C[C@@H](n2cnc3c(N[C@H]4CCN(c5ccc(C(F)(F)F)cn5)C4)ncnc32)[C@H](O)[C@@H]1O | F
OC[C@H]1C[C@@H](n2cnc3c(N[C@H]4CCN(c5ccc6cc(Br)ccc6n5)C4)ncnc32)[C@H](O)[C@@H]1O | F
COC[C@H]1C[C@@H](n2cnc3c(N[C@H]4CCN(c5ccc(Cl)nn5)C4)ncnc32)[C@H](O)[C@@H]1O | F

Switching to the query record.
Problem: Bench note: check whether "COc1cc(N2CC[C@H](Nc3ncnc4c3ncn4[C@@H]3O[C@H](CO)[C@@H](O)[C@H]3O)C2)ncn1" shows EC50 below 4 nM
Solution: T
